system: CCRF-CEM leukemia; experiment: NCI tumour cell line growth inhibition, 48 h
measure: TGI

INSERT INTO measurements (compound, measured_on, recorded_measurement) VALUES
  ('O=C(Nc1cccc(C(F)(F)F)c1)c1ccc(NC2=C(Cl)C(=O)N(Cc3ccc(Cl)cc3Cl)C2=O)cc1', 'CCRF-CEM leukemia', '5.46 µM'),
  ('COC1C(OC(=S)Nc2ccccc2)c2ccccc2N1C(C)=O (configuration not stated)', 'CCRF-CEM leukemia', '> 100 µM'),
  ('N=c1c2c(-c3ccccc3)c(-c3ccccc3)n(Cc3ccccc3)c2ncn1C1CCC(O)CC1 (configuration not stated)', 'CCRF-CEM leukemia', '9.25 µM'),
  ('CC12CCC(=O)C[C@H]1CCC(OC=O)C2Br (some centres not stated)', 'CCRF-CEM leukemia', '> 100 µM'),
  ('Cc1c(N(C)C)ccc2c(=O)c3cccc(CC(=O)O)c3oc12', 'CCRF-CEM leukemia', '> 100 µM'),
  ('CCOC(=O)c1ccc(/C(C)=N/NC(N)=S)cc1', 'CCRF-CEM leukemia', '> 100 µM'),
  ('N#CNC(=NCc1ccccc1)N(Cc1ccccc1)Cc1ccccc1', 'CCRF-CEM leukemia', '> 31.6 µM'),
  ('CCN1CN(c2ccccc2)C2(CCN(CC3COc4ccccc4O3)CC2)C1=O (configuration not stated)', 'CCRF-CEM leukemia', '83.3 µM'),
  ('CC(C)c1cc2c(c(O)c1O)[C@@]1(C(=O)O)CCCC(C)(C)[C@@H]1CC2', 'CCRF-CEM leukemia', '42.3 µM'),
  ('COc1cc(OC)cc(C(=O)CC(=O)c2cc(OC)cc(OC)c2)c1', 'CCRF-CEM leukemia', '> 100 µM'),
  ('Cc1c2n(c(=O)[nH]c1=O)C1OC(CO)C(N=[N+]=[N-])C1O2 (configuration not stated)', 'CCRF-CEM leukemia', '> 100 µM'),
  ('Cc1ccc(C2=CC(=O)OC(C[P+](c3ccccc3)(c3ccccc3)c3ccccc3)(c3ccccc3)O2)cc1 (configuration not stated)', 'CCRF-CEM leukemia', '99.4 µM'),
  ('CN1CCOC1c1ccccc1O (configuration not stated)', 'CCRF-CEM leukemia', '> 100 µM'),
  ('CN(C)C1CCN(C(=O)c2ccc(NC(=O)Nc3ccc(-c4nc(N5CCOCC5)c5cccn5n4)cc3)cc2)CC1', 'CCRF-CEM leukemia', '4.69 µM'),
  ('O=C(O)CN1CCN2CCCCCN(CC1)CCN(CC(=O)O)CC2', 'CCRF-CEM leukemia', '> 100 µM'),
  ('O=C(O)CCNc1ncnc2nc[nH]c12', 'CCRF-CEM leukemia', '> 100 µM'),
  ('CC(C)(C)c1cc(C(P(=O)(O)O)P(=O)(O)O)cc(C(C)(C)C)c1O', 'CCRF-CEM leukemia', '> 100 µM'),
  ('N#Cc1nn(-c2cc(=O)[nH]c3ccc(Cl)cc23)c(N)c1C#N', 'CCRF-CEM leukemia', '> 100 µM'),
  ('COc1ccc2/c(=C/c3ccc(N(C)C)cc3)c3cc(-c4ccccc4)[n+](C)n3c2c1', 'CCRF-CEM leukemia', '5.37 µM'),
  ('Oc1cc(Cl)cc2cccnc12', 'CCRF-CEM leukemia', '1.95 µM'),
  ('CCN(CC)CCNc1nc(N)c(C#N)c(C#N)c1C#N', 'CCRF-CEM leukemia', '> 10 µM'),
  ('CC(=O)Nc1ccc(-c2csc(Nc3cccc(-c4csc(C)n4)c3)n2)cc1', 'CCRF-CEM leukemia', '> 50 µM');

---

test system: SK-MEL-5 melanoma; test: NCI tumour cell line growth inhibition, 48 h
Recorded TGI by entry
measure: TGI

INSERT INTO assay_data (compound, measured_on, recorded_measurement) VALUES
  ('COc1ccc(N2C(=O)CC(=O)N(NC(=O)C(C)Oc3ccccc3C)C2=S)cc1 (stereo not drawn)', 'SK-MEL-5 melanoma', '> 100 µM'),
  ('O=C(O)COc1ccccc1C(=O)Nc1ccccc1', 'SK-MEL-5 melanoma', '> 100 µM'),
  ('COc1cc(N(CCC#N)CCC#N)ccc1/C(N=Nc1ccc(Cl)cc1)=N/NC(=O)c1cc(Br)ccc1O', 'SK-MEL-5 melanoma', '> 150 µg/mL');

---

system: UACC-257 melanoma; assay: NCI tumour cell line growth inhibition, 48 h
Recorded TGI by entry
measure: TGI

INSERT INTO assay_data (molecule, recorded_measurement) VALUES
  ('Cc1nc(C)c(C(=O)NNC(=O)C[N+](C)(C)C)cc1C(=O)NNC(=O)C[N+](C)(C)C', '> 100 µM'),
  ('O=C1OCC/C1=N/O', '> 100 µM'),
  ('COC(=O)C1CCCC2(C1)OCCO2 (centres undefined)', '> 100 µM'),
  ('O=[N+]([O-])C(=C(Nc1ccccc1)Nc1ccccc1)C(Cl)=C(Cl)Cl', '30.7 µM');
